# assay system: Nuclear receptor subfamily 1 group I member 2 (Homo sapiens) (UniProt O75469)
# Sequence (O75469 whole entry, looked up): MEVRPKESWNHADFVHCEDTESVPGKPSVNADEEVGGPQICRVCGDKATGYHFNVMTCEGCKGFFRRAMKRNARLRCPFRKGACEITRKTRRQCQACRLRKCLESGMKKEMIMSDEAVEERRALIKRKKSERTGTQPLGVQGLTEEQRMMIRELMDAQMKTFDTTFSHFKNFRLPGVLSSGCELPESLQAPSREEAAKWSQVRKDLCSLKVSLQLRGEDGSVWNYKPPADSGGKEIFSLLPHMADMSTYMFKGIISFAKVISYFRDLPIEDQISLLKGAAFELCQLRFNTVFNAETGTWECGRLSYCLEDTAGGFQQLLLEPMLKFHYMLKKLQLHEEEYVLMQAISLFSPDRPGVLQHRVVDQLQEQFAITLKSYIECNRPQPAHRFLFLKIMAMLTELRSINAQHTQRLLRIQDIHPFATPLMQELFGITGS
# method summary: Human pregnane X receptor (PXR) small molecule agonists, qHTS assay (AID 1346982); further: nearly all actives have a fitted effect of over 35% in size
# condition details: PXR-Luc HepG2, CYP3A4 luciferase reporter, 24 h; series mostly up to 92.4 µM
# Description: National Center for Advancing Translational Sciences [NCATS] NIH Chemical Genomics Center [NCGC] U.S. Environmental Protection Agency [EPA] National Institutes of Environmental Health Sciences [NIEHS] National Toxicology Program [NTP] The human pregnane X receptor (hPXR) regulates the expression of several drug metabolizing enzymes and induction of these proteins is a major mechanism for developing drug resistance in cancer. […]
Inconclusive results are not listed. Calls of active or inactive are those of the source. The call rests on the fitted dose curve; in most records, active means well fitted activation curve with a large enough effect in the repeat runs; inconclusive means weak or mixed curves; inactive means no such curve, though single readings can be large or run the other way.
Outcome codes: active, inactive

smiles entry: Cc1nc(N(C)C)nc(OC(=O)N(C)C)c1C
classification: inactive
--
smiles entry: O=[N+]([O-])O[C@H]1CO[C@H]2[C@@H]1OC[C@H]2O[N+](=O)[O-]
classification: inactive
--
smiles entry: O=S(=O)(Cl)Cl
classification: inactive
--
smiles entry: c1ccc2c(c1)sc1ccccc12
classification: inactive
--
smiles entry: C[N+](C)(C)CCOC(=O)C(O)(c1ccccc1)c1ccccc1
classification: inactive
--
smiles entry: CCCCCBr
classification: inactive
--
smiles entry: O=C(O)C(F)(F)C(F)(F)C(F)(F)C(F)(F)C(F)(F)C(F)(F)C(F)(F)C(F)(F)F
classification: active
--
smiles entry: C[C@]12CC[C@H]3[C@@H](CCC4=CC(=O)CC[C@@H]43)[C@@H]1CC[C@@H]2OC(=O)CCc1ccccc1
classification: inactive
--
smiles entry: NC(=O)CF
classification: inactive
--
smiles entry: CNC(=O)Oc1cccc(N=CN(C)C)c1
classification: inactive
--
smiles entry: CCCN(CCC)c1c([N+](=O)[O-])cc(C(C)C)cc1[N+](=O)[O-]
classification: active
--
smiles entry: CCc1ccccc1N
classification: inactive
